B1: VH:VL chains; a variant is named by its letters at X, in order (parent)
chain 1: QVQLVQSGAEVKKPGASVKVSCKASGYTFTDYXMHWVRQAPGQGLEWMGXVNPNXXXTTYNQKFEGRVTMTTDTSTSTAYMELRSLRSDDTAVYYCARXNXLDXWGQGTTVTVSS
chain 2: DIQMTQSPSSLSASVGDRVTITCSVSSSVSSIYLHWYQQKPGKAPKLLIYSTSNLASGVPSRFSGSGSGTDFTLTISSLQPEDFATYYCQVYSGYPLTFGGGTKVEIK

Variants of: B1
Experiment: yeast display scFab, FACS + sequencing
Conditions: with MET
The list shows a part of the results. The hit rate among all sequences tested is not known here.

Mutant Code	antigen binding call
DAGGAAGV	no binding
VTAGDSAD	no binding
YRGGGSGS	binds
VATGGYAV	no binding
YRRRGVGV	binds
VEGEDAGA	no binding
VEEEGDAV	no binding
YRGRDSWD	binds
DATGGYAV	binds
DATGGDGV	no binding
YKGRGSAY	binds
YRGRSSWD	binds
AATTDSGV	no binding
VAGGAYLY	no binding
